# Optical Density (OD) annotations
# Tested system: Cynomolgus monkey CD1a protein (Cynomolgus monkey)
# Assay text: ELISA, Ab 0.1 µg/ml
Enter your answer as a number in OD; do not include the unit.

{"Binder": "116 (VR12117) (antibody, V domains shown, also called OX116) VH: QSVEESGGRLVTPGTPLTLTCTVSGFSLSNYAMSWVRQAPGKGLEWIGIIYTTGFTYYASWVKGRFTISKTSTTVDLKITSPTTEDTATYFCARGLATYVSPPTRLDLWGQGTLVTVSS VL: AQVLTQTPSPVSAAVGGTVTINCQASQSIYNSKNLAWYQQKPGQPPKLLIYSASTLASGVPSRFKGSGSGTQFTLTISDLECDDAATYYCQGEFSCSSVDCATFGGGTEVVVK", "Optical Density (OD)": 0.07}
{"Binder": "77A (VR11851) (antibody, V domains shown, V regions were 'cloned as either rabbit or mouse full length antibodies'; also called OX77a; antibody 77a) VH: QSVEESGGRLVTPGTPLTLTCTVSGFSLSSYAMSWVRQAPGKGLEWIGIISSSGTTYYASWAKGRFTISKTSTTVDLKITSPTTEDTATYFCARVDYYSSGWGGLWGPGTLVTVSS VL: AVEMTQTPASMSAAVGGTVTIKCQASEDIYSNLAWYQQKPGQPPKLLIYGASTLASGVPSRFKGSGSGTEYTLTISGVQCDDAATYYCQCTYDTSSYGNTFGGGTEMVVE", "Optical Density (OD)": 0.24}
{"Binder": "111 (VR12113) (antibody, V domains shown, also called OX111) VH: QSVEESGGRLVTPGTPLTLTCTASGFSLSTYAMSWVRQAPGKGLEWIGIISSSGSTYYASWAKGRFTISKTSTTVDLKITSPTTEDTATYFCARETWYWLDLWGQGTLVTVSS VL: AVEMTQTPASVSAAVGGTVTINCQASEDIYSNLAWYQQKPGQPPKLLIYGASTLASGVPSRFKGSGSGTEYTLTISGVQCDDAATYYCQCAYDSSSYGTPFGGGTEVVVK", "Optical Density (OD)": 0.66}

Recorded Optical Density (OD) (binder 110 (VR12112) (antibody, V domains shown, V regions were 'cloned as either rabbit or mouse full length antibodies'; also called OX110; antibody 110) VH: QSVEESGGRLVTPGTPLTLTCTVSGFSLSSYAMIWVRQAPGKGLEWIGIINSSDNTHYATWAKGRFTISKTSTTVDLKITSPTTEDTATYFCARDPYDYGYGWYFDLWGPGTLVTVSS VL: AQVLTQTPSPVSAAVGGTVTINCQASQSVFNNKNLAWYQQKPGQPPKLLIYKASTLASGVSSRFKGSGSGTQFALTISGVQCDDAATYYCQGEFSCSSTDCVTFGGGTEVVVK ): 0.53
